Details: 308.15 K; 101.33 kPa; Liquid; Vibrating tube method
outcome-measure: mass density (kg/m3)
Answer format: numeric, kg/m3 implied, no suffix.

Examples from the recorded data:
>>> df
                        molecule  endpoint_unit  experimental_value
0    CC(O)CCO (stereo not given)          kg/m3              991.28
1                         OCCCCO          kg/m3             1003.95
2                      O=C1CCCN1          kg/m3             1097.14
3  CC(O)C(C)O (stereo not given)          kg/m3              990.72

In the following, a different molecule is considered.
Q: Reported mass density for CCC(O)CO (stereo not given) : what is it?
Ans: 988.25

----------
Let's look at some molecules and their measured speed of sound.
Conditions: 308.15 K; 101.33 kPa; Liquid; Pulse-echo method
Numeric answer only, unit m/s assumed.

Past entries and their recorded results:
In [3]: df
Out[3]:
                                   molecule  experimental_value
0                   OCCCCO [1,4-butanediol]              1577.8
1  CC(O)CCO (stereo not given) [1,3-butanediol]                1496
2  CCC(O)CO (stereo not given) [1,2-butanediol]              1422.6

Q: Query: speed of sound; subject: O=C1CCCN1 [2-pyrrolidinone]
Ans: 1600

Q: Given the molecule CC(O)C(C)O (stereo not given) [2,3-butanediol] , what is its reported speed of sound?
Ans: 1456.6

----------
Conditions: 308.15 K; 101.33 kPa; Liquid; Capillary tube (Ostwald / Ubbelohde) method
outcome-measure: viscosity (mPa·s)
Give the quantity in mPa·s, number only.

In [3]: df
Out[3]:
                      compound  outcome_measure  endpoint_unit  experimental_value
0                       OCCCCO        viscosity          mPa·s               47.38
1  CCC(O)CO (stereo not given)        viscosity          mPa·s               30.29
2  CC(O)CCO (stereo not given)        viscosity          mPa·s               54.24
3                    O=C1CCCN1        viscosity          mPa·s               8.922

Please examine the following record next.
Q: Name the reported viscosity value associated with the compound CC(O)C(C)O (stereo not given)
Ans: 51.38
